The measured values listed here are drawn from paper PMC13586308.

# experimental-target: BRD3BD2 (Homo sapiens, UniProt Q15059)
# Construct: to the isolated BD1 and BD2 domains of BRD2, BRD3 and BRD4
# Sequence (Q15059 306-415 limits assumed): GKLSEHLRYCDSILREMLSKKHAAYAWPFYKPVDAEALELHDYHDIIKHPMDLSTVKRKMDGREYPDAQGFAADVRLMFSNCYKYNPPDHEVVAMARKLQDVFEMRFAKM
# assay-protocol: competitive FP assay, BRD3 BD2 -/+ FKBP12
# Format: binding
Let's look at some molecules and their measured α BRD3BD2.
readout: α BRD3BD2

molecule	experimental-target	result-number
Cc1sc2c(c1C)C(c1ccc(C#CCNC(=O)COCCn3cc(C4CN(Cc5ccccn5)C(=O)C5CCCC4N5S(=O)(=O)c4cc(Cl)cc(Cl)c4)nn3)cc1)=NC(CC(=O)OC(C)(C)C)c1nnc(C)n1-2 (centres unmarked) [b3c]	BRD3BD2 (Homo sapiens, UniProt Q15059)	3.8
Cc1sc2c(c1C)C(c1ccc(Cl)cc1)=NC(CC(=O)N1CCC3(CC1)CC(n1cc(C4CN(Cc5ccccn5)C(=O)C5CCCC4N5S(=O)(=O)c4cc(Cl)cc(Cl)c4)nn1)C3)c1nnc(C)n1-2 (centres unmarked) [a13c]	BRD3BD2 (Homo sapiens, UniProt Q15059)	0.3
Cc1sc2c(c1C)C(c1ccc(Cl)cc1)=N[C@@H](CC(=O)OC(C)(C)C)c1nnc(C)n1-2 [JQ1, (+)-JQ1, reference compound]	BRD3BD2 (Homo sapiens, UniProt Q15059)	1.0
Cc1sc2c(c1C)C(c1ccc(Cl)cc1)=NC(CC(=O)NCCOCCn1cc(COCC3CN(C(C)c4ccccn4)C(=O)C4CCCC3N4S(=O)(=O)c3cc(Cl)cc(Cl)c3)nn1)c1nnc(C)n1-2 (centres unmarked) [a1dj]	BRD3BD2 (Homo sapiens, UniProt Q15059)	1.1
Cc1sc2c(c1C)C(c1ccc(Cl)cc1)=NC(CC(=O)NCCOCCn1cc(COCC3CN(Cc4ccccn4)C(=O)C4CCCC3N4S(=O)(=O)c3cc(Cl)cc(Cl)c3)nn1)c1nnc(C)n1-2 (centres unmarked) [a1d]	BRD3BD2 (Homo sapiens, UniProt Q15059)	1.0
